Reference source for all entries: paper PMC6555819

# Target entity: RXRa (Homo sapiens, UniProt P19793)
# Sequence (P19793 whole entry): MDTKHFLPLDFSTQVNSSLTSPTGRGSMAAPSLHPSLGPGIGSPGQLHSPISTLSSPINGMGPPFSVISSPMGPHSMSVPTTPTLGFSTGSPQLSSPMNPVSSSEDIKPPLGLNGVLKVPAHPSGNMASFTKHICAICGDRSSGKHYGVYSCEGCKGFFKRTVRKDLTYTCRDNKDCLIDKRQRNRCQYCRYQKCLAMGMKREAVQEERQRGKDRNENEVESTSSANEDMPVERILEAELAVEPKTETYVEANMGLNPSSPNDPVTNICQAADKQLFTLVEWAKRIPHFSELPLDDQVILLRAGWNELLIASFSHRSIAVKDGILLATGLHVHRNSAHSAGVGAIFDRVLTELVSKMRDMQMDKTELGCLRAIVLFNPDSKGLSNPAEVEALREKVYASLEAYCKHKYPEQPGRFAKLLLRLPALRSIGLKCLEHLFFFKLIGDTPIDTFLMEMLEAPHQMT
# Method: no ligand; PBM; 180 nM; PBS pH 7.4, 2% milk, 0.02% Triton X-100, 1 mM DTT, BSA, 0.4 mg/ml salmon testes DNA
# Measurement parameters: tags: His cleaved; chain copies: 2; label: surface-attached array probe
Quantity measured: binding signal

| Binder | Result |
| --- | --- |
| NRC3_wobSeed29_DR1_T22A_o1 (dsDNA) DNA 1: GCGCTTACGGGTCAAAGGTTAAAGCATGAATAGAATGCGATTGACAGCGTAGAATGAAGG DNA 2: CCTTCATTCTACGCTGTCAATCGCATTCTATTCATGCTTTAACCTTTGACCCGTAAGCGC | 10 PBM z-score against 500 random probes |
| NRC3_wobSeed25_DR1_T8G_o1 (dsDNA) DNA 1: GCCAAACGAGGTCAAAGGTCAAAGTCGAGCCAACCAGCGATTGACAGCGTAGAATGAAGG DNA 2: CCTTCATTCTACGCTGTCAATCGCTGGTTGGCTCGACTTTGACCTTTGACCTCGTTTGGC | 11 PBM z-score against 500 random probes |
| NRC3_wobSeed136_DR5_G21C_o1 (dsDNA) DNA 1: GCTAGCCTAGGTCATTCAGGCGCCAGTATAGAAAGCGCGATTGACAGCGTAGAATGAAGG DNA 2: CCTTCATTCTACGCTGTCAATCGCGCTTTCTATACTGGCGCCTGAATGACCTAGGCTAGC | 3 PBM z-score against 500 random probes |
